target: glutathione S-transferase (GST-GSH binding); assay: GST–glutathione interaction disruption – biochemical, multiplex beads, flow cytometry, HPSMTB buffer, profiling panel (AID 1324); settings: multiplex bead flow cytometry, MCF;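 also: glutathione beads loaded with GST-green fluorescent protein and no fluorescent Bim peptide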
The source made the active and inactive calls. No rule for the calls is given here.
measured property: EC50

Please review the entries below; each comes with its answer.
> print(dat)
                                   compound  measured.property  reported.result
1  COc1ccc(OC)c(-n2c(=O)c3ccccc3c3ccccc3c2=O)c1               EC50         inactive
2  CN(C)[C@@H]1C(=O)C(C(=O)NCN2CCCC2)=C(O)[C@@]2(O)C(=O)C3=C(O)c4c(O)cccc4[C@@](C)(O)C3CC12 (some centres not stated)               EC50         inactive
3  Cc1cccc(/C=N/N(CCO)C2=NS(=O)(=O)c3ccccc32)c1               EC50         inactive
4  Cc1ccc(O)c(NC2=C(Cl)C(=O)N(Cc3ccccc3)C2=O)c1               EC50         inactive

Provide reported EC50 for each item, in the same order as listed.
1. CN(/N=C/C=C/c1ccccc1)C1=NS(=O)(=O)c2ccccc21
2. Cc1ccnc(SCc2cc(=O)c(OC(=O)c3ccc(Cl)c([N+](=O)[O-])c3)co2)n1
3. CN1CCN(C2=C(Cl)C(=O)C(c3cnc(N4CCCCC4)s3)=C(Cl)C2=O)CC1
4. Cc1ccc(Nc2nc(-c3c(C)nc4ncccn34)cs2)cc1
5. CCCCNc1nc(=S)[nH]c2cc(OC)c(OC)cc12
6. COc1cc2[nH]c(=S)nc(NCC3CCCO3)c2cc1OC (configuration not stated)
7. COCCCn1c(N)c(C(=O)Nc2sc3c(c2C(=O)OC)CCCC3)c2nc3ccccc3nc21
8. CN(/N=C/c1ccncc1)C1=NS(=O)(=O)c2ccccc21

1. 2520 nM
2. inactive
3. 220 nM
4. inactive
5. inactive
6. inactive
7. 2550 nM
8. 3160 nM

---

biological target: glutathione S-transferase (GST-GSH binding); experiment: GST–glutathione interaction disruption – biochemical, multiplex beads, flow cytometry, HPSMTB buffer, profiling panel (AID 1324); conditions: multiplex bead flow cytometry, MCF, active compounds read high, concentration not given here
Activity calls are given as the source filed them. No rule for the calls is given here.
measured property: percent span inhibition

Below, 5 molecules whose answers are already recorded.
> print(dat)
                                   molecule                           subject.of.test        measured.property  reported.result
1  COc1cc(N2CCOCC2)ccc1C=C1C(=O)NC(=O)NC1=O  glutathione S-transferase (GST-GSH binding)  percent span inhibition         inactive
2  Cc1ccc(-c2cc(C(=O)OCC(=O)N(C)C3CCS(=O)(=O)C3)c3ccccc3n2)o1 (stereo unspecified)  glutathione S-transferase (GST-GSH binding)  percent span inhibition         inactive
3       CCOc1cc(C2Nc3cccc4cccc(c34)N2)ccc1O  glutathione S-transferase (GST-GSH binding)  percent span inhibition         inactive
4  OCCC1CN(Cc2ccc3ncccc3c2)CCN1Cc1ccccc1 (stereo unspecified)  glutathione S-transferase (GST-GSH binding)  percent span inhibition         inactive
5             O=C(Nc1ccccc1N1CCOCC1)c1cccs1  glutathione S-transferase (GST-GSH binding)  percent span inhibition         inactive

Now look at this one.
The recorded percent span inhibition for `CCOc1c(Cl)cc(CNc2ccc(N3CCCC3)cc2)cc1OC` is inactive

---

target: glutathione S-transferase (GST-GSH binding); assay: GST–glutathione interaction disruption – biochemical, multiplex beads, flow cytometry, HPSMTB buffer, profiling panel (AID 1324); conditions: multiplex bead flow cytometry, MCF; call rule not given here
Respond only with the outcome that fits, drawn from active, inactive

Outcome logged for `COc1ccc(C2=Nn3c(nnc3-c3ccco3)SC2)cc1OC` in this assay:
active

---

biological target: glutathione S-transferase (GST-GSH binding); assay: GST–glutathione interaction disruption – biochemical, multiplex beads, flow cytometry, HPSMTB buffer, profiling panel (AID 1324); conditions: multiplex bead flow cytometry, MCF, active compounds read high, concentration not given here
Activity calls are given as the source filed them. The rule behind the calls is not given here.
measured property: percent span inhibition

Solved entries:
> print(dat)
                                   compound                           subject.of.test  reported.result
1               COc1cc(N=c2ssnc2Cl)cc(OC)c1  glutathione S-transferase (GST-GSH binding)         inactive
2  COc1ccc(N=C2NC(=O)/C(=C\C=C\c3ccco3)S2)cc1  glutathione S-transferase (GST-GSH binding)         inactive
3  O=c1[nH]c2ccc(N=Cc3c(O)ccc4cc(Br)ccc34)cc2[nH]1  glutathione S-transferase (GST-GSH binding)         inactive
4  COC(=O)CSc1ncnc2c1sc1nc(-c3ccco3)c3c(c12)CC(C)(C)OC3  glutathione S-transferase (GST-GSH binding)         inactive
5  CS(=O)(=O)NN1C(=O)c2ccccc2NC1c1cccs1 (stereo unspecified)  glutathione S-transferase (GST-GSH binding)         inactive
6           COc1ccc(Cl)cc1-n1c(C)cc(C=O)c1C  glutathione S-transferase (GST-GSH binding)         inactive

Batch request: percent span inhibition per item, same order as input.
1. CNC(=O)c1c(N)sc2c1CCCCC2
2. Cc1[nH]n(C(N)=S)c(=O)c1N=Nc1ccc(S(=O)(=O)N2CCCCCC2)cc1
3. Nc1ccc(N2CCN(CCCCN3C(=O)C4CCCN4C3=O)CC2)cc1 (stereo unspecified)

["inactive", "inactive", "inactive"]

I have 2 compounds here; please give me percent span inhibition for each one.
1. CC1=C2C(CCS2(=O)=O)CC2(C1)C(=O)OC(C)(C)OC2=O (stereo unspecified)
2. CN(C)c1ccc(C=C2C(=O)NC(=O)NC2=O)cc1[N+](=O)[O-]

1. inactive
2. inactive

---

molecular target: glutathione S-transferase (GST-GSH binding); assay: GST–glutathione interaction disruption – biochemical, multiplex beads, flow cytometry, HPSMTB buffer, profiling panel (AID 1324); conditions: multiplex bead flow cytometry, MCF
The source made the active and inactive calls. No rule for the calls is given here.
Mark one answer only. Choices: yes = active, no = inactive

Below, 3 compounds whose answers are already recorded.
> print(dat)
                      smiles.representation  answer.label
1  O=C1c2ccccc2-c2onc3ccc(NCCCn4ccnc4)c1c23            no
2     COc1ccccc1Nc1nc(-c2c(C)nc3ncccn23)cs1            no
3  O=C(NCCO)c1ccc2nc(-c3ccco3)c(-c3ccco3)nc2c1           yes

How was `CN(C)c1ncc(C2=C(Cl)C(=O)C(N3CCCC3)=C(Cl)C2=O)s1` classified in this test?
yes

How did this test come out for `COc1ccc(-n2c(=O)c3ccccc3c3ccccc3c2=O)c(OC)c1` ?
no

---

target: glutathione S-transferase (GST-GSH binding); assay: GST–glutathione interaction disruption – biochemical, multiplex beads, flow cytometry, HPSMTB buffer, profiling panel (AID 1324); conditions: multiplex bead flow cytometry, MCF, active compounds read high, concentration not given here;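 also: glutathione beads loaded with GST-green fluorescent protein and no fluorescent Bim peptide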
Active and inactive are the calls of the source. How the calls were made is not given here.
measured property: percent span inhibition

> print(dat)
                                   compound  reported.result
1  O=C(C[n+]1ccc(-c2nnc3n2CCC3)cc1)c1ccc(Cl)cc1         inactive
2  O=C1Nc2ccc([N+](=O)[O-])cc2OC1CCN1CCN(Cc2ccc3c(c2)OCO3)CC1 (stereo not drawn)         inactive
3  CCN(CC)CCN(C(=O)c1ccc(N2C(=O)CCC2=O)cc1)c1nc2cc3c(cc2s1)OCCO3         inactive

---

biological target: glutathione S-transferase (GST-GSH binding); assay: GST–glutathione interaction disruption – biochemical, multiplex beads, flow cytometry, HPSMTB buffer, profiling panel (AID 1324); conditions: multiplex bead flow cytometry, MCF; call rule not given here;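 also: glutathione beads loaded with GST-green fluorescent protein and no fluorescent Bim peptide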
Returns: one label drawn from yes (1) for active, no (0) for inactive

Can you look up the reported call for `Cc1nc2ncccn2c1-c1csc(Nc2ccc(O)cc2)n1` for me?
yes (1)

I'd appreciate the recorded outcome for `COc1cc(/C=N/Nc2nn3cnnc3c3ccccc23)ccc1O` from this test.
yes (1)

---

molecular target: glutathione S-transferase (GST-GSH binding); test: GST–glutathione interaction disruption – biochemical, multiplex beads, flow cytometry, HPSMTB buffer, profiling panel (AID 1324); conditions: multiplex bead flow cytometry, MCF;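 also: glutathione beads loaded with GST-green fluorescent protein and no fluorescent Bim peptide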
Calls of active or inactive are those of the source. The rule behind the calls is not given here.
measured property: EC50

See these solved cases before continuing.
> print(dat)
                      smiles.representation                           subject.of.test  measured.property  reported.result
1     Cc1ccnc(Nc2nc(-c3c(C)nc4sccn34)cs2)c1  glutathione S-transferase (GST-GSH binding)               EC50         inactive
2  COc1cc2[nH]c(=S)nc(NCCc3ccc(S(N)(=O)=O)cc3)c2cc1OC  glutathione S-transferase (GST-GSH binding)               EC50          3.63 µM
3  CCOC(=O)c1ccc(Nc2nc(C(=O)OCC)nc3ccccc23)cc1  glutathione S-transferase (GST-GSH binding)               EC50          2.38 µM
4      COc1ccc2nc(-c3ccco3)c(-c3ccco3)nc2c1  glutathione S-transferase (GST-GSH binding)               EC50         inactive
5  O=C(Nc1ccc2nc(-c3ccco3)c(-c3ccco3)nc2c1)N1CCCCCC1  glutathione S-transferase (GST-GSH binding)               EC50         inactive
6     COc1cccc(/C=N/Nc2nn3cnnc3c3ccccc23)c1  glutathione S-transferase (GST-GSH binding)               EC50          7.28 µM

Respectfully, I request EC50 for each entry included below.
1. O=S1(=O)N=C(N(CCO)/N=C/c2ccncc2)c2ccccc21
2. CCN=c1scc(C)n1/N=C/c1ccc(O)c(O)c1O

1. inactive
2. inactive

Lab note: each compound below needs its EC50 filled in.
1. CN1CCc2cccc3c2[C@@H]1Cc1ccc(O)c(O)c1-3
2. NC(=O)c1sc2nc3c(c(-c4ccco4)c2c1N)CCC3

1. inactive
2. inactive

Return reported EC50 values for all items listed beneath this line.
1. CCOC(=O)c1c2c3c(cccc3[nH]c1=O)C(=O)c1ccccc1-2
2. CC1=CC(=O)c2c(O)ccc(O)c2C1=O
3. Cc1cc(C)nc(SCc2cc(=O)c(OC(=O)c3ccc(Cl)c([N+](=O)[O-])c3)co2)n1

1. inactive
2. inactive
3. 6.13 µM

For each of the compounds below, note its EC50.
1. O=C(Nc1cccc(Cl)c1)Nc1ccnc(-c2cccnc2)n1
2. O=C1c2ccccc2-c2onc3ccc(NCc4ccco4)c1c23
3. O=[N+]([O-])c1ccc(N/N=C/c2ccc(O)c(O)c2O)c(S(=O)(=O)N2CCOCC2)c1
4. COc1cc(OC)c([N+](=O)[O-])cc1/C=N/NC(=O)c1ccncc1

inactive
inactive
inactive
inactive
